Source: patent US20210024545A1

# test system: human TASK-1 (Homo sapiens, UniProt O14649)
# Sequence (O14649 whole entry): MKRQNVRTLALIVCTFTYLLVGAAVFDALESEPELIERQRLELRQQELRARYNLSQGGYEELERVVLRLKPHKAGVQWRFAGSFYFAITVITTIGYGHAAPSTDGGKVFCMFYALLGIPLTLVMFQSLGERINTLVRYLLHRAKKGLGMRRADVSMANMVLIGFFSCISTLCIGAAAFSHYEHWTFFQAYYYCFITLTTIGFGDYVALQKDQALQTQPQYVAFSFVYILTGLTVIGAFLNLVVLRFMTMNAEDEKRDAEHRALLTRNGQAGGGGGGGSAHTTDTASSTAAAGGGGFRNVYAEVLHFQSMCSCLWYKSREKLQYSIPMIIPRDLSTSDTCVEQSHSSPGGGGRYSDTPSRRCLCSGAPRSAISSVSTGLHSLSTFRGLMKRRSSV
# test: Inhibition of recombinant TASK-1 in stably transfected CHO cells, KCl-induced depolarization, voltage-sensitive dye (B-2)
# Assay type: cell-based
# Design: expressed in transfected cells; host or cells: stably transfected CHO cells
# details: depolarization induced by 40 mM potassium chloride, some mean values from multiple determinations
pIC50: −log10 of the molar value.
# cutoff 7 applies to pIC50; >= gives satisfied, < gives not satisfied

> print(dat)
                                   compound       category
1  CC(C)N(C(=O)N1C2CCC1CN(Cc1c(-c3ccc(Cl)cc3)nc3ccccn13)C2)c1ccc(Cl)cc1  not satisfied
2  O=C(c1ccccc1F)N1C2COCC1CN(Cc1c(-c3ccc(Cl)cc3)nc3ccccn13)C2  not satisfied
3  COc1ccc(Cl)c(C(=O)N2CC3CCC2CN3Cc2c(-c3ccc(Br)cc3)nc3ccccn23)n1 (racemic)      satisfied
4  O=C(N1CCOCC1)N1C2COCC1CN(Cc1c(-c3ccc(Cl)cc3)nc3ccccn13)C2  not satisfied
